Target: HDM2 (Homo sapiens)
Construct: Thioredoxin (N); made in house; host or cells: E. coli strain BL21(DE3)Rosetta
Sequence (Q00987 17-125): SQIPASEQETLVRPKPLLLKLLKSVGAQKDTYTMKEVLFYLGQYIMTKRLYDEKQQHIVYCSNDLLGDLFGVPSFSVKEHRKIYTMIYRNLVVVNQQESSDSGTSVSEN
Assay: HDM2 FRET assay (inhibition of binding of FITC labeled p53-pocket peptide to HDM2)
Conditions: Table 18; read-out: FRET IC50
pIC50: −log10 of the molar value.
QUANTITY: pIC50

>  <MOLECULE>
CC[C@@H]1COCCN1c1nc2nc(-c3noc(=O)[nH]3)nc(-c3cccc(Cl)c3)c2n1C(C)[C@H]1CC[C@H](C)CC1 (single isomer, unassigned) [Example 18.50]

>  <TESTED ON>
HDM2 (Homo sapiens)

>  <QUANTITY>
pIC50

>  <MEASURED NUMBER>
8.15

$$$$
>  <MOLECULE>
CCC1=CCC(Cn2c(-c3cc(C(C)C)ccn3)nc3nc(C(=O)O)nc(N[C@H](C)C4CCC4)c32)CC1 (stereo partly drawn) [Example 18.6]

>  <TESTED ON>
HDM2 (Homo sapiens)

>  <QUANTITY>
pIC50

>  <MEASURED NUMBER>
7.80

$$$$
>  <MOLECULE>
CC[C@H]1CC[C@H](Cn2c(N3CCOCC3)nc3nc(C(=O)O)nc(N[C@H](C)C4CCC4)c32)CC1

>  <TESTED ON>
HDM2 (Homo sapiens)

>  <QUANTITY>
pIC50

>  <MEASURED NUMBER>
7.88

$$$$
>  <MOLECULE>
CC[C@H]1CC[C@H](Cn2c(N3CCOC[C@H]3c3ccccc3)nc3nc(-c4noc(=O)[nH]4)nc(N[C@H](C)C4CCC4)c32)CC1

>  <TESTED ON>
HDM2 (Homo sapiens)

>  <QUANTITY>
pIC50

>  <MEASURED NUMBER>
8.41

$$$$
>  <MOLECULE>
CC(C)c1ccnc(-c2nc3nc(-c4noc(=O)[nH]4)nc(N[C@H](C)C4CCC4)c3n2CC2CCC(C)(C)CC2)c1

>  <TESTED ON>
HDM2 (Homo sapiens)

>  <QUANTITY>
pIC50

>  <MEASURED NUMBER>
6.40

$$$$
>  <MOLECULE>
Cc1cccc(-c2nc3nc(C(=O)O)nc(N[C@H](C)C4CCC4)c3n2C[C@H]2CC[C@@H](C(F)(F)F)CC2)c1

>  <TESTED ON>
HDM2 (Homo sapiens)

>  <QUANTITY>
pIC50

>  <MEASURED NUMBER>
6.17

$$$$

* * *

Target: HDM2 (Homo sapiens)
Construct: Thioredoxin (N); made in house; host or cells: E. coli strain BL21(DE3)Rosetta
Experiment: HDM2 FRET assay (inhibition of binding of FITC labeled p53-pocket peptide to HDM2)
Conditions: Table 21; read-out: FRET IC50
pIC50: −log10 of the molar value.

>  <COMPOUND>
C[C@@H](Nc1nc(C(=O)O)nc2nc(C3=C(c4ccccc4)CCCC3)n(C[C@H]3CC[C@H](C)CC3)c12)C1CCC1

>  <pIC50>
8.19

$$$$
>  <COMPOUND>
C[C@@H](Nc1nc(-c2noc(=O)[nH]2)nc2nc(CCc3ccccc3)n(C[C@H]3CC[C@H](C)CC3)c12)C1CCC1

>  <pIC50>
8.10

$$$$
>  <COMPOUND>
C=C(c1ccc(F)cc1)c1nc2nc(-c3noc(=O)[nH]3)nc(N[C@H](C)C3CCC3)c2n1C[C@H]1CC[C@H](C)CC1

>  <pIC50>
8.74

$$$$
>  <COMPOUND>
C=C(c1nc2nc(-c3noc(=O)[nH]3)nc(N[C@H](C)C3CCC3)c2n1C[C@H]1CC[C@H](C)CC1)C1CCCCC1

>  <pIC50>
9.03

$$$$
>  <COMPOUND>
C[C@@H](Nc1nc(-c2noc(=O)[nH]2)nc2nc(C3CCCC3)n(C[C@H]3CC[C@H](C)CC3)c12)C1CCC1

>  <pIC50>
8.11

$$$$
>  <COMPOUND>
C[C@@H](Nc1nc(C(=O)O)nc2nc(C3COCC3c3ccccc3)n(Cc3ccc(C(F)(F)F)cc3)c12)C1CCC1 (single isomer, unassigned) [Example 21.8]

>  <pIC50>
8.42

$$$$

* * *

Biological target: HDM2 (Homo sapiens)
Construct: Thioredoxin (N); made in house; host or cells: E. coli strain BL21(DE3)Rosetta
Assay: FRET assay (HDM2 inhibition; method not described in this part)
Format: binding
Conditions: Table 2
pIC50: −log10 of the molar value.
QUANTITY: pIC50

>  <COMPOUND>
Cc1ccc(-c2nc3nc(C(=O)O)nc(N[C@H](C)C4CC4)c3n2Cc2ccc(C(F)(F)F)cc2)c(C)c1 [Example 2.52]

>  <QUANTITY>
pIC50

>  <MEASURED NUMBER>
6.51

$$$$
>  <COMPOUND>
CC(C)c1cccc(-c2nc3nc(C(=O)O)nc(N[C@H](C)C4CCC4)c3n2Cc2ccc(C(F)(F)F)cc2)c1 [Example 2.24]

>  <QUANTITY>
pIC50

>  <MEASURED NUMBER>
7.83

$$$$
>  <COMPOUND>
Cc1ccc(-c2nc3nc(C(=O)O)nc(N[C@H](C)C4CC4)c3n2Cc2ccc(C(F)(F)F)cc2)cc1 [Example 2.33]

>  <QUANTITY>
pIC50

>  <MEASURED NUMBER>
6.40

$$$$
>  <COMPOUND>
C[C@@H](Nc1nc(C(=O)O)nc2nc(-c3ccccc3C(N)=O)n(Cc3ccc(C(F)(F)F)cc3)c12)C1CC1 [Example 2.78]

>  <QUANTITY>
pIC50

>  <MEASURED NUMBER>
6.66

$$$$
>  <COMPOUND>
C[C@@H](Nc1nc(C(=O)O)nc2nc(-c3ccc(Cl)c(F)c3)n(Cc3ccc(C(F)(F)F)cc3)c12)C1CC1 [Example 2.53]

>  <QUANTITY>
pIC50

>  <MEASURED NUMBER>
6.70

$$$$
>  <COMPOUND>
CCOc1cccc(-c2nc3nc(C(=O)O)nc(N[C@H](C)C4CCC4)c3n2Cc2ccc(C(F)(F)F)cc2)c1 [Example 2.17]

>  <QUANTITY>
pIC50

>  <MEASURED NUMBER>
7.40

$$$$
>  <COMPOUND>
C[C@@H](Nc1nc(C(=O)O)nc2nc(-c3cccc(Cl)c3)n(Cc3ccc(C(F)(F)F)cc3)c12)C1CC1 [Example 2.22]

>  <QUANTITY>
pIC50

>  <MEASURED NUMBER>
6.91

$$$$

* * *

Target: HDM2 (Homo sapiens)
Construct: Thioredoxin (N); made in house; host or cells: E. coli strain BL21(DE3)Rosetta
Experiment: HDM2 FRET assay (inhibition of binding of FITC labeled p53-pocket peptide to HDM2)
Details: 0.5 nM HDM2 (residues 17 to 125), 3nM peptide, two hour incubation at room temperature; read-out: FRET IC50
Description: Methods: An HDM2 FRET assay was developed to assess the compounds' inhibitory activity towards binding of p53 protein. […] Protein was purified using Ni-affinity chromatography, followed by size exclusion chromatography using Superdex 75 26/60 column. […] The HDM2 assay buffer contained 1x Phosphate Buffered Saline (Invitrogen, Cat#14190), 0.01% BSA (Jackson ImmunoResearch, Cat# 001-000-162), 0.01% Tween-20. […]
pIC50: −log10 of the molar value.
Consider the following compounds and their measured pIC50 readings.

>  <COMPOUND>
C[C@@H](Nc1nc(-c2noc(=O)[nH]2)nc2nc(-c3cc(C(C)(C)O)c(F)cn3)n(C[C@H]3CC[C@H](C)CC3)c12)C1CCC1

>  <TESTED ON>
HDM2 (Homo sapiens)

>  <pIC50>
8.40

$$$$
>  <COMPOUND>
CC(C)c1cc(-c2nc3nc(-c4noc(=O)[nH]4)nc(N[C@H](C)C4CCC4)c3n2C[C@H]2CC[C@H](C)CC2)ncc1F

>  <TESTED ON>
HDM2 (Homo sapiens)

>  <pIC50>
7.93

$$$$
>  <COMPOUND>
C[C@H]1CC[C@H](Cn2c(N3CCOC[C@H]3CO)nc3nc(-c4noc(=O)[nH]4)nc(-c4cccc(Cl)c4)c32)CC1

>  <TESTED ON>
HDM2 (Homo sapiens)

>  <pIC50>
7.32

$$$$
>  <COMPOUND>
C[C@@H](Nc1nc(C(=O)O)nc2nc(-c3cc(C4CC4)ccn3)n(C[C@H]3CC[C@H](C)CC3)c12)C1CCC1

>  <TESTED ON>
HDM2 (Homo sapiens)

>  <pIC50>
8.68

$$$$
>  <COMPOUND>
Cc1ncc(Cl)cc1-c1nc(-c2n[nH]c(=O)o2)nc2nc(N3CCOC[C@H]3c3ccccc3)n(C[C@H]3CC[C@H](C)CC3)c12

>  <TESTED ON>
HDM2 (Homo sapiens)

>  <pIC50>
9.15

$$$$
>  <COMPOUND>
C[C@@H]1COCCN1c1nc2nc(-c3n[nH]c(=O)o3)nc(-c3cccc(Cl)c3)c2n1C[C@H]1CC[C@H](C)CC1

>  <TESTED ON>
HDM2 (Homo sapiens)

>  <pIC50>
7.84

$$$$
>  <COMPOUND>
C[C@H](C1CCC1)N(C)c1nc(C(=O)O)nc2nc(-c3cc(C(C)(C)C)ccn3)n(C[C@H]3CC[C@H](C)CC3)c12

>  <TESTED ON>
HDM2 (Homo sapiens)

>  <pIC50>
7.75

$$$$
>  <COMPOUND>
C[C@H]1CC[C@H](Cn2c(N3CCCC4COCCC43)nc3nc(-c4noc(=O)[nH]4)nc(-c4cccc(Cl)c4)c32)CC1 (single isomer, unassigned)

>  <TESTED ON>
HDM2 (Homo sapiens)

>  <pIC50>
7.65

$$$$
>  <COMPOUND>
Cc1cnc(-c2nc3nc(C(=O)O)nc(N[C@H](C)C4CCC4)c3n2C[C@H]2CC[C@H](C)CC2)cc1C

>  <TESTED ON>
HDM2 (Homo sapiens)

>  <pIC50>
8.07

$$$$
>  <COMPOUND>
CC(C)c1ccnc(-c2nc3nc(C(=O)O)nc(N[C@H](C)C(F)(F)F)c3n2C[C@H]2CC[C@H](C)CC2)c1

>  <TESTED ON>
HDM2 (Homo sapiens)

>  <pIC50>
7.75

$$$$
>  <COMPOUND>
C[C@@H](Nc1nc(S(C)(=O)=O)nc2nc(N3CCCCC3c3ccccc3)n(C[C@H]3CC[C@H](C)CC3)c12)C1CCC1 (single isomer, unassigned)

>  <TESTED ON>
HDM2 (Homo sapiens)

>  <pIC50>
6.96

$$$$
>  <COMPOUND>
Cc1cccc(-c2nc(-c3noc(=O)[nH]3)nc3nc(-c4cc(C(C)C)ccn4)n(C[C@H]4CC[C@H](C)CC4)c23)c1

>  <TESTED ON>
HDM2 (Homo sapiens)

>  <pIC50>
7.52

$$$$
>  <COMPOUND>
C[C@@H]1OCCN(c2nc3nc(-c4n[nH]c(=O)o4)nc(-c4cncc(Cl)c4)c3n2C[C@H]2CC[C@H](C)CC2)[C@@H]1C

>  <TESTED ON>
HDM2 (Homo sapiens)

>  <pIC50>
6.85

$$$$
>  <COMPOUND>
C[C@H]1CC[C@H](Cn2c(N3CCOC[C@H]3c3ccncc3)nc3nc(-c4n[nH]c(=O)o4)nc(-c4cccc(Cl)c4)c32)CC1

>  <TESTED ON>
HDM2 (Homo sapiens)

>  <pIC50>
8.42

$$$$
>  <COMPOUND>
C[C@@H](Nc1nc(-c2noc(=O)[nH]2)nc2nc(-c3cc(C(C)(C)O)ccn3)n(C[C@H]3CC[C@H](C)CC3)c12)C1CCC1

>  <TESTED ON>
HDM2 (Homo sapiens)

>  <pIC50>
8.32

$$$$
>  <COMPOUND>
C[C@H]1CC[C@H](Cn2c(N3CCOC[C@H]3CF)nc3nc(-c4noc(=O)[nH]4)nc(-c4cccc(Cl)c4)c32)CC1

>  <TESTED ON>
HDM2 (Homo sapiens)

>  <pIC50>
7.92

$$$$
>  <COMPOUND>
C[C@H]1CC[C@H](Cn2c(N3CCOC[C@H]3c3ccccc3)nc3nc(-c4noc(=O)[nH]4)nc(-c4cc(Cl)cc(Cl)c4)c32)CC1

>  <TESTED ON>
HDM2 (Homo sapiens)

>  <pIC50>
9.00

$$$$
>  <COMPOUND>
C[C@@H](Nc1nc(S(C)(=O)=O)nc2nc(N3CCOC[C@H]3c3ccccc3)n(C[C@H]3CC[C@H](C)CC3)c12)C1CCC1

>  <TESTED ON>
HDM2 (Homo sapiens)

>  <pIC50>
7.63

$$$$
>  <COMPOUND>
C[C@@H](Nc1nc(C(=O)NS(=O)(=O)N(C)C)nc2nc(N3CCOC[C@H]3c3ccccc3)n(C[C@H]3CC[C@H](C)CC3)c12)C1CCC1

>  <TESTED ON>
HDM2 (Homo sapiens)

>  <pIC50>
8.85

$$$$
>  <COMPOUND>
C[C@H]1OCCN(c2nc3nc(-c4noc(=O)[nH]4)nc(-c4cccc(Cl)c4)c3n2C[C@H]2CC[C@H](C)CC2)[C@@H]1c1ccccc1

>  <TESTED ON>
HDM2 (Homo sapiens)

>  <pIC50>
8.98

$$$$
>  <COMPOUND>
C[C@@H]1OCCN(c2nc3nc(-c4n[nH]c(=O)o4)nc(-c4cccc(Cl)c4)c3n2C[C@H]2CC[C@H](C)CC2)[C@@H]1c1ccccc1

>  <TESTED ON>
HDM2 (Homo sapiens)

>  <pIC50>
7.05

$$$$
>  <COMPOUND>
C[C@H]1CC[C@H](Cn2c(N3CCC[C@H]3C(F)(F)F)nc3nc(-c4noc(=O)[nH]4)nc(-c4cccc(Cl)c4)c32)CC1

>  <TESTED ON>
HDM2 (Homo sapiens)

>  <pIC50>
9.04

$$$$
>  <COMPOUND>
CC[C@@H]1[C@@H](C)OCCN1c1nc2nc(-c3noc(=O)[nH]3)nc(-c3cncc(Cl)c3)c2n1C[C@H]1CC[C@H](C)CC1

>  <TESTED ON>
HDM2 (Homo sapiens)

>  <pIC50>
8.25

$$$$
>  <COMPOUND>
CN(Cc1ccccc1)c1nc2nc(-c3noc(=O)[nH]3)nc(-c3cccc(Cl)c3)c2n1C[C@H]1CC[C@H](C)CC1

>  <TESTED ON>
HDM2 (Homo sapiens)

>  <pIC50>
7.37

$$$$

Sourced from patent EP2951180B1
